# study.target: EGFR (L858R) (Homo sapiens, UniProt P00533, L858R)
# Construct: host or cells: NIH3T3
# Sequence (P00533 25-1210 L858R): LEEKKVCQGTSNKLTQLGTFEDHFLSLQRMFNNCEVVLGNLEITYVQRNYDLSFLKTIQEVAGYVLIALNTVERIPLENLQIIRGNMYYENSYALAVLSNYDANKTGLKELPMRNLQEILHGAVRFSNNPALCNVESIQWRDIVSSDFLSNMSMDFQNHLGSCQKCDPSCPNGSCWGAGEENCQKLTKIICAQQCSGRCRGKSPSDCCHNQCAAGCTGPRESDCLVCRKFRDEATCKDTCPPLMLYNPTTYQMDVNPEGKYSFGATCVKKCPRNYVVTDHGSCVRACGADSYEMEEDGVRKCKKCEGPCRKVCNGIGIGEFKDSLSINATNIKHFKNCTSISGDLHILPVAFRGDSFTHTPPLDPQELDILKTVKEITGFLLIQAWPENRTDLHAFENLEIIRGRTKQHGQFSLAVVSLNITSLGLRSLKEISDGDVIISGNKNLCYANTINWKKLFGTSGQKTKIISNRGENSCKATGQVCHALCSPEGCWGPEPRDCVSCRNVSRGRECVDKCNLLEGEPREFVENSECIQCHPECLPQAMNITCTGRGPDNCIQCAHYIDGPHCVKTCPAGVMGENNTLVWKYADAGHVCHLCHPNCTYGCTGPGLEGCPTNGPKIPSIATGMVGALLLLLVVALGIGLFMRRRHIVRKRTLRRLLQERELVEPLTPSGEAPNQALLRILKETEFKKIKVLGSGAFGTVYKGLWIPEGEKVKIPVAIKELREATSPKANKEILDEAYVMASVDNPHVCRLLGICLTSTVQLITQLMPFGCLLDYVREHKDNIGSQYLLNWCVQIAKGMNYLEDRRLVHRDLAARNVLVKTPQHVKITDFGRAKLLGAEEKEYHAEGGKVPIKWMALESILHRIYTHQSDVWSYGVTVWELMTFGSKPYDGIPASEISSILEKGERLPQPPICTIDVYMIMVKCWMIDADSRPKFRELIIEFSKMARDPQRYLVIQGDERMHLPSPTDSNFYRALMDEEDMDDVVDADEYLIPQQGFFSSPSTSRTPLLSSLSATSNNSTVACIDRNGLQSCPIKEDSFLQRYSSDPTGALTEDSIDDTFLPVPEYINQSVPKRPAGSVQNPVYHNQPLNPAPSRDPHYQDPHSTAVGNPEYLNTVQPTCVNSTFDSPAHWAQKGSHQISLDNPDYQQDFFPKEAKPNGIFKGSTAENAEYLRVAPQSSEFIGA
# procedure.details: EGFR target modulation in engineered NIH3T3 cell lines (phospho-EGFR AlphaLISA)
# Assay type: cell-based
# run.parameters: NIH3T3 cells expressing human EGFR L858R; 3 hours compound
assay.endpoint: log10 of IC50 (log10 of the value in µM)

[
  {
    "structure.as.smiles": "C=CC(=O)Nc1cccc(-n2c(NC(=O)c3cccc(C(F)(F)F)c3)nc3cc(CN4CCCC4)ccc32)c1",
    "log10 of IC50": -0.74
  },
  {
    "structure.as.smiles": "C=CC(=O)N(C)c1cccc(-n2c(NC(=O)c3cccc(C(F)(F)F)c3)nc3cc(C)ccc32)c1",
    "log10 of IC50": -0.18
  },
  {
    "structure.as.smiles": "C=CC(=O)Nc1cccc(-n2c(NC(=O)c3cccc(-c4ccccc4)c3)nc3cc(C)ccc32)c1",
    "log10 of IC50": -1.64
  },
  {
    "structure.as.smiles": "C=CC(=O)Nc1cccc(-n2c(NC(=O)c3cccc(C(F)(F)F)c3)nc3cc(CO)ccc32)c1",
    "log10 of IC50": -0.35
  },
  {
    "structure.as.smiles": "C=CC(=O)Nc1cccc(-n2c(NC(=O)c3cccc(C(F)(F)F)c3)nc3cc(C)ccc32)c1",
    "log10 of IC50": -0.26
  }
]

----------
# study.target: EGFR(L858R/T790M) (Homo sapiens, UniProt P00533, L858R/T790M)
# Sequence (P00533 669-1210 T790M/L858R): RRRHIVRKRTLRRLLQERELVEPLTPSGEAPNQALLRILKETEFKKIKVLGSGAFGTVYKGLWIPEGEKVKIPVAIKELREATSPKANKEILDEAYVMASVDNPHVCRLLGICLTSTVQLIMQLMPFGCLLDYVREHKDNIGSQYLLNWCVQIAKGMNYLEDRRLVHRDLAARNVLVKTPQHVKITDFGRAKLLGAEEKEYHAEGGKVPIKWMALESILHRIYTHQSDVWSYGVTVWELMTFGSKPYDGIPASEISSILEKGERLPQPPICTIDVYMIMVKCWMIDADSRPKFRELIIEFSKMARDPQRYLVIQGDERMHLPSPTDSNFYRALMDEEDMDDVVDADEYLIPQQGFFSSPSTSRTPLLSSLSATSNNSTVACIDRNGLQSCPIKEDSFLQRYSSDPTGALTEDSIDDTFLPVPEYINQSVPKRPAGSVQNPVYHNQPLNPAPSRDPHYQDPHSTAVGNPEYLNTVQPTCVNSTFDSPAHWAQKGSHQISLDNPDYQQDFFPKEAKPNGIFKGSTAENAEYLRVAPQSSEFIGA
# procedure.details: EGFR biochemical assay (HTRF), IC50 determination
# Parameters: purchased from Carna (GST-a.a. 669-1210); purchased Carna
# run.parameters: EGFR (L858R/T790M) IC50 (μM) 90 min pre-incubation, 90 min pre-incubation; 10 μM ATP
assay.endpoint: IC50 (µM)

[
  {
    "compound": "C=CC(=O)Nc1cccc(-n2c(NC(=O)c3cccc(C(F)(F)F)c3)nc3cc(CO)ccc32)c1 [Example 3]",
    "study.target": "EGFR(L858R/T790M) (Homo sapiens, UniProt P00533, L858R/T790M)",
    "unit.text": "µM",
    "experimental.value": 0.003
  },
  {
    "compound": "C/C=C/C(=O)Nc1cccc(-n2c(NC(=O)c3cccc(C(F)(F)F)c3)nc3cc(C)ccc32)c1 [Example 2-14]",
    "study.target": "EGFR(L858R/T790M) (Homo sapiens, UniProt P00533, L858R/T790M)",
    "unit.text": "µM",
    "experimental.value": 0.101
  },
  {
    "compound": "C=CC(=O)Nc1cc(C)cc(-n2c(NC(=O)c3ccnc(C)c3)nc3cccc(Cl)c32)c1 [Example 2-18]",
    "study.target": "EGFR(L858R/T790M) (Homo sapiens, UniProt P00533, L858R/T790M)",
    "unit.text": "µM",
    "experimental.value": 0.046
  },
  {
    "compound": "C=CC(=O)N[C@@H]1CC[C@H](n2c(NC(=O)c3cccc(C(F)(F)F)c3)nc3cc(C)ccc32)C1 (single isomer, unassigned) [Example 9-1B]",
    "study.target": "EGFR(L858R/T790M) (Homo sapiens, UniProt P00533, L858R/T790M)",
    "unit.text": "µM",
    "experimental.value": 0.15
  },
  {
    "compound": "C=CC(=O)Nc1cccc(-n2c(NC(=O)c3cccc(C(F)(F)F)c3)nc3cc(COCC)ccc32)c1 [Example 4]",
    "study.target": "EGFR(L858R/T790M) (Homo sapiens, UniProt P00533, L858R/T790M)",
    "unit.text": "µM",
    "experimental.value": 0.005
  },
  {
    "compound": "C=CC(=O)N(C)c1cccc(-n2c(NC(=O)c3cccc(C(F)(F)F)c3)nc3cc(C)ccc32)c1 [Example 2-10]",
    "study.target": "EGFR(L858R/T790M) (Homo sapiens, UniProt P00533, L858R/T790M)",
    "unit.text": "µM",
    "experimental.value": 0.003
  },
  {
    "compound": "C=CC(=O)Nc1ccc(-n2c(NC(=O)c3cccc(C(F)(F)F)c3)nc3cc(C)ccc32)cc1 [Example 2-11]",
    "study.target": "EGFR(L858R/T790M) (Homo sapiens, UniProt P00533, L858R/T790M)",
    "unit.text": "µM",
    "experimental.value": 0.15
  }
]
